- EXPERIMENTAL_TARGET: Estrogen receptor beta (Homo sapiens) (UniProt Q92731)
- Sequence (Q92731 whole entry, looked up): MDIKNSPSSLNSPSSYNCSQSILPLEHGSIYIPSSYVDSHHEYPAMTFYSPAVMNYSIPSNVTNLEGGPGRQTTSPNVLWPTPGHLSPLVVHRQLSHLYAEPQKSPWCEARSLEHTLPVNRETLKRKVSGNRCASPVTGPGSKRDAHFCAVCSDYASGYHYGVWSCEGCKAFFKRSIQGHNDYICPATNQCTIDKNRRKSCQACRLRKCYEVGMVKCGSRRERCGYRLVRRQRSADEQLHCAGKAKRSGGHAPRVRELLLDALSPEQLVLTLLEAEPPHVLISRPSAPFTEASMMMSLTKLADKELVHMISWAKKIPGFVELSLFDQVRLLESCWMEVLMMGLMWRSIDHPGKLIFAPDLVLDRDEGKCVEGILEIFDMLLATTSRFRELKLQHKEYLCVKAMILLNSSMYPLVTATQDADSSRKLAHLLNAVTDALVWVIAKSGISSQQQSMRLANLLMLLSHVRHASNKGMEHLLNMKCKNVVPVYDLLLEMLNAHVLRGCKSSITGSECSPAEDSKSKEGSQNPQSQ
- PROTOCOL_TEXT: ATG_hERb_XSP2: Attagene TRANS-FACTORIAL Multi-Species (XSP2) HepG2 Assay for human Estrogen Receptor (ERb) (AID 2283813);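 also: actives raise reporter mRNA above DMSO so AC50 reflects agonist induction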
Inconclusive results are not listed. Calls of active or inactive are those of the source. The calls were made as follows: active = hit-call score of the fitted dose curve at least 0.9, where 1 is the maximum; inconclusive = response in the unintended direction; inactive = score below 0.9.
REPORTED_METRIC: outcome

INSERT INTO results (compound, experimental_target, value_reported) VALUES
  ('CCc1cccc(C)c1N(C(=O)CCl)C(C)COC (stereo unspecified)', 'Estrogen receptor beta (Homo sapiens) (UniProt Q92731)', 'inactive'),
  ('CCOP(=O)(NC(C)C)Oc1ccc(SC)c(C)c1 (stereo unspecified)', 'Estrogen receptor beta (Homo sapiens) (UniProt Q92731)', 'inactive'),
  ('C#CCC1=C(C)C(OC(=O)C2C(C=C(C)C)C2(C)C)CC1=O (stereo unspecified)', 'Estrogen receptor beta (Homo sapiens) (UniProt Q92731)', 'inactive'),
  ('Nc1c(Cl)cc([N+](=O)[O-])cc1Cl', 'Estrogen receptor beta (Homo sapiens) (UniProt Q92731)', 'inactive'),
  ('CCOP(=S)(OCC)Oc1ccc2c(C)c(Cl)c(=O)oc2c1', 'Estrogen receptor beta (Homo sapiens) (UniProt Q92731)', 'inactive'),
  ('CCCOCC(=Nc1ccc(Cl)cc1C(F)(F)F)n1ccnc1', 'Estrogen receptor beta (Homo sapiens) (UniProt Q92731)', 'inactive');

----------
- PROTOCOL_TEXT: LTEA_HepaRG_LDH_cytotoxicity: Cytotoxicity Assessment in the Life Technologies and Expression Analysis (LTEA) Assay (AID 2283563)
Calls of active or inactive are those of the source. The calls were made as follows: active = hit-call score of the fitted dose curve at least 0.9, where 1 is the maximum; inconclusive = response in the unintended direction; inactive = score below 0.9.
Possible outcomes: active, inactive

INSERT INTO assay_data (molecule, assigned_class) VALUES
  ('CC1(C(=O)Nc2ccc(O)c(Cl)c2Cl)CCCCC1', 'inactive'),
  ('CSc1nnc(C(C)(C)C)c(=O)n1N', 'inactive'),
  ('CCC(=O)Nc1ccc(Cl)c(Cl)c1', 'inactive'),
  ('CNC(=O)Oc1cccc2c1OC(C)(C)O2', 'inactive'),
  ('CCCSP(=O)(OCC)Oc1ccc(Br)cc1Cl (centres undefined)', 'inactive'),
  ('O=[N+]([O-])c1cc(C(F)(F)F)c(Cl)c([N+](=O)[O-])c1Nc1ncc(C(F)(F)F)cc1Cl', 'active'),
  ('CC[C@H](C)[C@H]1O[C@]2(C=C[C@@H]1C)C[C@@H]1C[C@@H](C/C=C(\C)[C@@H](O[C@H]3C[C@H](OC)[C@@H](O[C@H]4C[C@H](OC)[C@@H](NC)[C@H](C)O4)[C@H](C)O3)[C@@H](C)/C=C/C=C3\CO[C@@H]4[C@H](O)C(C)=C[C@@H](C(=O)O1)[C@]34O)O2', 'active'),
  ('CCOP(=S)(Oc1cnc(C(C)(C)C)nc1)OC(C)C (centres undefined)', 'inactive'),
  ('COP(=O)(OC)OC(Br)C(Cl)(Cl)Br (centres undefined)', 'inactive');

----------
- PROTOCOL_TEXT: CCTE_Shafer_MEA_dev_mutual_information_norm: CCTE's Neural Network Formation Assay for Mutual Information Normalization, Shafer Lab (AID 2284091)
Active and inactive are the calls of the source. The calls were made as follows: active = hit-call score of the fitted dose curve at least 0.9, where 1 is the maximum; inactive = score below 0.9.
Possible outcomes: active, inactive

INSERT INTO results (compound, assigned_class) VALUES
  ('C[N+]1(C)CCCCC1', 'inactive'),
  ('CCOP(=O)(OCC)Oc1cc(C)nc(C(C)C)n1', 'inactive'),
  ('CC(=NC#N)N(C)Cc1ccc(Cl)nc1', 'inactive'),
  ('CN(C)[C@@H]1C(=O)C(C(N)=O)=C(O)[C@@]2(O)C(=O)C3=C(O)c4c(O)cccc4[C@@](C)(O)[C@H]3[C@H](O)[C@@H]12', 'inactive'),
  ('CCOP(=S)(OCC)Oc1ccc2c(C)c(Cl)c(=O)oc2c1', 'active'),
  ('CCOC(=O)CC(SP(=O)(OC)OC)C(=O)OCC (stereo unspecified)', 'inactive');
